- SYSTEM UNDER TEST: T1, TGFβ2 (R&D Systems)
- T1 sequence (P61812 303-414, species assumed, looked up): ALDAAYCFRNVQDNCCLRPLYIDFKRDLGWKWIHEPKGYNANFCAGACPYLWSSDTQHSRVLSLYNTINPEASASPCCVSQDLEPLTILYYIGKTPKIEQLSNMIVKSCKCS
- MEASUREMENT PROTOCOL: SPR (Biacore T200), TGFβ amine-coupled to chip, 1:1 fit
VALUE TYPE: pKd
pKd (log units): -log10 of the concentration in mol/L.

Below, 2 binders whose answers are already recorded.
# BINDER, DATA VALUE
measured = [
    ("Felinized anti-TGFβ1,2,3 antibody VH2.1 - VL8 (antibody, V domains shown) VH: QVLLVQSGADVRKPGASVKIFCKASGYTFTSNVISWVRQTPAQGFEWMGGVIPIVDIANYAQRFKGRLVLTADTSTNTAYMELRSLKSADTAVYYCASTLGLVLDAMDYWGQGSLVTVSS VL: DIVMTQSPGSLAGSPGQQVTMNCRASQSLGSSYLAWYQQKPGQHPELLIYGASSRAPGVPDRFSGSGSGTDFTLTISNLQAEDVANYYCQQYADSPITFGQGTKLEIKR", 8.47),
    ("human: feline GC1008 chimera felchimGC1008 (antibody, V domains shown) VH: QVQLVQSGAEVKKPGSSVKVSCTASGYTPSSNVISNVRQAPGQGLENNGGVIPIVDIANYAQRPKGRVTITADESTSTTYHELSSLRSEDTAVYYCASTLGLVLDAMDYHGQGTLVTVSS VL: ETVLTQSPGTLSLSPGERATLSCRASQSLGSSYLAWYQQKPGQAPRLLIYGASSRAPGIPDRFSGSGSGTDFTLTISRLEPEDFAVYYCQQYADSPITFGQGTRLEIKR", 8.73),
]

Continue with the binder presented below.
Enquiry: Recall and state the measured pKd for Caninized anti-TGFβ1,2,3 antibody VH4.5 - VL2 (ZTS-207) (antibody, V domains shown) VH: EVQLVESGGDLVKPAGSLRLSCVASGYTFSSNVMSWVRQAPGKGLQWVGYVIPIVDIANYADAVKGRFTISRDNAKNTLYLQMNSLRVEDTAVYYCTRTLGLVLDAMDYWGQGTLVTVSS VL: ETVLTQSPGTLSLSPGERATLSCRASQSLGSSYLAWYQQKPGQAPRLLIYGASSRAPGVPARFSGSGSGTDFTLTISSLEPEDFAVYYCQQYADSPITFGQGTKLEIKR .
Return: 8.85
